- runDescription: in vitro
- testParameters: African green monkey, CC50 cell toxicity, Vero cells, MTS, no virus; compounds from secondary screening
Counter-ions that a name gives are not always drawn.
valueKind: CC50 at 24 h

>>> result("CCOC(=O)C1=C[C@]2(CC)CCCN3CCc4c(n1c1ccccc41)[C@@H]32")
"> 50 µM"
>>> result("CC1=NN(c2ccc(C)c(C)c2)C(=O)/C1=N\\Nc1cccc(-c2cccc(C(=O)O)c2)c1O")
"43.8 µM"
>>> result("CC[C@H]1CN2CC[C@H]1C[C@@H]2[C@@H](O)c1ccnc2ccc(OC)cc12 [hydroquinidine]")
"> 50 µM"
>>> result("CN1CCC(OC(c2ccccc2)c2ccccc2)CC1 [Diphenylpyraline hydrochloride]")
"> 50 µM"

# get_value(readout='CC50 at 24 h', item= CN1CC2c3ccccc3Oc3ccc(Cl)cc3C2C1 (centres unmarked) )
> 50 µM

I'd like to know its CC50 at 24 h. The molecule in question is CC(CN1c2ccccc2Sc2ccccc21)N(C)C (centres unmarked) [Promethazine hydrochloride]
> 50 µM

Bench note: what CC50 at 24 h did CN(Cc1cc(Br)cc(Br)c1N)C1CCCCC1 [Bromhexine hydrochloride] show?
> 50 µM

Returns the measured CC50 at 24 h for the input molecule. Input: `Cc1ccc(NC(=O)c2ccc(CN3CCN(C)CC3)cc2)cc1Nc1nccc(-c2cccnc2)n1`
> 50 µM
